- tgt: Glycogen synthase kinase-3 beta (Homo sapiens)
- experimental setup: Compound concentration 20.0 uM, Protein concentration 2.0 uM, Result type QC Liability
- Description: Thermal Shift Assay. Domain: start/stop: M26-R383
# cutoff -0.4 °C applies to ΔTm; >= gives satisfied, < gives not satisfied

# check: ΔTm of CN(C(=O)c1cnn2cccnc12)c1cc2c(cc1N1CCOCC1)C(=O)N(C[C@@H](F)C(C)(C)O)C2 is greater than or equal to -0.4 °C
not satisfied

Tell me whether ΔTm is at least -0.4 °C here: C=C(F)C(=O)N1CCN(c2nc(OC[C@@H]3CCCN3C)nc3c2CCN(c2cccc4cccc(Cl)c24)C3)C[C@@H]1CC#N
satisfied

// inclusive: ΔTm at least -0.4 °C? input: Cc1nsc(Nc2cnc(C(F)(F)F)cn2)c1C(=O)Nc1ccc(O[C@H]2CCCN(CC(F)(F)F)C2)nc1
not satisfied

Identify whether the reported ΔTm of the following molecule is -0.4 °C or greater: CC#CCC(C)[C@H](O)/C=C/[C@@H]1[C@H]2C/C(=C/CCCC(=O)O)C[C@H]2C[C@H]1O (stereo partly drawn)
not satisfied

Determine whether measured ΔTm meets or exceeds -0.4 °C for C[C@@H]1OCC2(CCN(c3cnc(Sc4ccnc(N)c4Cl)c(N)n3)CC2)[C@@H]1N
satisfied

Can Cc1cnc(Nc2ccc(C(=O)N3CCN(C)CC3)cc2)nc1N[C@@H]1CCC[C@@H]1C(N)=O be said to have ΔTm at or above -0.4 °C?
satisfied

For this molecule, is measured ΔTm -0.4 °C or higher? Cc1cc(OCCC(C)(C)O)cc(C)c1-c1ccc(F)c2c1CC[C@H]2Oc1ccc2c(c1)OC[C@H]2CC(=O)O
not satisfied

Quick check: does C=CC1C[C@]1(NC(=O)[C@@H]1C[C@@H](Oc2cc(-c3csc(NC(=O)C(C)C)n3)nc3c(Br)c(OC)ccc23)CN1C(=O)[C@@H](NC(=O)OC1CCCC1)C(C)(C)C)C(=O)O (stereo partly drawn) have ΔTm greater than or equal to -0.4 °C?
not satisfied

Check if ΔTm >= -0.4 °C (inclusive). Item: Cc1nc2ccc(Cl)cc2c(-c2ccccc2)c1CC(=O)O
satisfied

Test whether the molecule CCn1c(=O)c2c(C)c(C(=O)N3CCC(O)CC3)sc2n(CCC(F)(F)F)c1=O records ΔTm of -0.4 °C or higher.
not satisfied

Exam item: decide whether the reported ΔTm for Cc1cc(-c2cnc(N)c3c(-c4ccc5scnc5c4)csc23)n(C)n1 is at least -0.4 °C.
not satisfied

Quick check, ΔTm >= -0.4 °C? C=CC(=O)Nc1cccc(C)c1Nc1ncc2cc(-c3c(Cl)c(OC)cc(OC)c3Cl)ccc2n1
not satisfied

Could you please find out whether CNC(=O)COc1cc2cc(Nc3nc(N4CCC(C(=O)N(C)C)CC4)ncc3Cl)cc(OC)c2n(C)c1=O has ΔTm that meets -0.4 °C or exceeds it?
not satisfied

Does C[C@@H]1C[C@H](C)CN(c2ncc(Cl)c(Nc3ccc4c(c3)cc(OC(C)(C)C(=O)O)c(=O)n4C)n2)C1 have a reported ΔTm of at least -0.4 °C?
not satisfied

API: above_or_equal(metric=ΔTm, cutoff=-0.4 °C) for item Fc1ccc(-c2c3cccc(C(F)(F)F)c3nn2Cc2ccc(F)cc2Cl)cc1
not satisfied

Decide: is the reported value of ΔTm for COc1ccc(-c2cc3c(C)nc(N)nc3n([C@H]3CC[C@H](OCCO)CC3)c2=O)cn1 equal to or greater than -0.4 °C?
not satisfied

Please indicate if the recorded ΔTm for CN[C@@H](C)C(=O)N[C@H]1CN(C(=O)CC(C)C)CC[C@H]2CC[C@@H](C(=O)NC(c3ccccc3)c3ccccc3)N2C1=O meets or exceeds -0.4 °C.
not satisfied

Hi team, for Cn1cncc1-c1cn(-c2cccc(C(=O)Nc3cccc(C(F)(F)F)c3)c2)nn1 , is the recorded ΔTm at or above -0.4 °C?
satisfied

Exam item: decide whether the reported ΔTm for N#CC[C@H](C1CCCC1)n1cc(-c2ncnc3[nH]ccc23)cn1 is at least -0.4 °C.
satisfied

Threshold query (ΔTm >= -0.4 °C) on C[C@H]1CN(C2COC2)CCN1c1ccc(Nc2cc(-c3ccnc(N4CCn5c(cc6c5CC(C)(C)C6)C4=O)c3CO)cn(C)c2=O)nc1
not satisfied

Answer whether ΔTm of COc1cc(CN(CCN)C(=O)N[C@@H](C)c2ccccc2)ccc1OCc1ccccc1 is greater than or equal to -0.4 °C.
not satisfied

State whether the measured ΔTm reaches -0.4 °C, counting equality as reaching it, for Cc1ncc(C(=O)Nc2cc(C(C)(C)C)on2)cc1-n1cc(-c2cnn(C)c2C)nn1
not satisfied

# check: ΔTm of Cc1cc(OC2CCS(=O)(=O)CC2)cc(C)c1-c1cccc(COc2ccc(CCC(=O)O)c(F)c2)c1 is greater than or equal to -0.4 °C
not satisfied

Hi, just wondering whether Cc1[nH]c2c(N3CCCCC3)c(-c3ccccc3)nn2c(=O)c1-c1ccc(O)cc1 shows ΔTm of -0.4 °C or higher.
not satisfied

Threshold query (ΔTm >= -0.4 °C) on Cc1[nH]nc(C(F)(F)F)c1Cc1sc2c(c1C(=O)N1C[C@](C)(O)CO1)c(=O)n(C)c(=O)n2C(C)C
satisfied

Decide: is the reported value of ΔTm for Cn1cc(NC(=O)c2ccc3nc4n(c3c2)CCCNC4=O)nc1C(=O)NC1CCCC1 equal to or greater than -0.4 °C?
not satisfied

Would you say C=C1/C(=C\C=C2/CCC[C@]3(C)[C@@H]([C@H](C)CCCC(C)(C)O)CC[C@@H]23)C[C@@H](O)C[C@@H]1O shows ΔTm at minimum -0.4 °C?
not satisfied

Please indicate if the recorded ΔTm for O=C(O)CCCCCC[C@@H]1C(=O)NC(=O)N1CCC(O)C1CCCCC1 (stereo partly drawn) meets or exceeds -0.4 °C.
satisfied

Hi team, for CC(=O)O[C@H]1C(=O)[C@@]2(C)[C@H]([C@H](OC(=O)c3ccccc3)[C@]3(O)C[C@H](OC(=O)[C@H](O)[C@@H](NC(=O)c4ccccc4)c4ccccc4)C(C)=C1C3(C)C)[C@]1(OC(C)=O)CO[C@@H]1C[C@@H]2O , is the recorded ΔTm at or above -0.4 °C?
satisfied

Textbook exercise: given the entry COc1ccc(-c2c(-c3ccccc3)oc3ncnc(O[C@H](C)CCCCC(=O)O)c23)cc1 , state whether its ΔTm is greater than or equal to -0.4 °C.
not satisfied

Threshold query (ΔTm >= -0.4 °C) on O=C(Nc1ccc(C(O)(C(F)(F)F)C(F)(F)F)cc1)c1ccc(C(F)(F)F)cc1
satisfied

hey, is ΔTm for this one >= -0.4 °C? CC(=O)c1ccc2c(c1)/C(=C(/Nc1cccc(C#N)c1)c1ccc3c(c1)OCCO3)C(=O)N2
satisfied

Has CC#CC(=O)N1CCN(c2nc(-c3ccc(Oc4ccccc4)cc3)c(C(N)=O)s2)CC1 a recorded ΔTm greater than or equal to -0.4 °C?
not satisfied
